Assay: probe aNOTCH3 binding on compound microarray – biochemical, small-molecule microarray, 635/667 nm fluorescence, primary screen (AID 1120);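 further: probe is a biotin-tagged antibody raised against NOTCH3 rather than NOTCH3 protein; score merges spot fluorescence near 667 nm with spot signal to noise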
Settings: higher = more signal
Classification field: t = composite z-score at or over 0.1; f = composite z-score under 0.1.

// known answers, use as guide
[
  {
    "compound": "COc1ccc([Si](C)(C)[C@@H]2[C@@H](CCO)O[C@]3(C(=O)N(Cc4ccccc4)c4ccc(N5C(=O)c6cccc7cccc5c67)cc43)[C@H]2C)cc1",
    "discrete_label": "f"
  },
  {
    "compound": "C=CCNC(=O)[C@@H]1[C@H]2C(=O)O[C@H](c3ccccc3)[C@H](c3ccccc3)N2[C@H](c2ccccc2OCCO)[C@@]12C(=O)Nc1ccc(C#CCCO)cc12",
    "discrete_label": "f"
  },
  {
    "compound": "COC(=O)[C@@]1(Cc2ccc(OC)cc2)[C@H]2c3cc(C(=O)N4CCCC4)n(CCc4c[nH]c5ccc(OC)cc45)c3C[C@H]2CN1C(=O)c1ccccc1",
    "discrete_label": "t"
  },
  {
    "compound": "CCCC#C[Si](O[C@H](CC)c1cn([C@H](C)c2ccccc2)nn1)(C(C)C)C(C)C",
    "discrete_label": "f"
  },
  {
    "compound": "Cc1ccc(N2C(=O)c3ccccc3[C@@H](C(=O)NCCCN(C)C)[C@@H]2c2ccc(CO)cc2)nc1",
    "discrete_label": "f"
  }
]

Request: # check: composite z-score of C=CCNC(=O)[C@@H]1[C@H]2C(=O)O[C@H](c3ccccc3)[C@H](c3ccccc3)N2[C@H](c2ccccc2OCCO)[C@@]12C(=O)Nc1ccc(C#CCC(C(=O)OC)C(=O)OC)cc12 is greater than or equal to 0.1
Result: t

Request: # check: composite z-score of O=C(NCCN1CCOCC1)[C@@H]1c2ccccc2C(=O)N(Cc2ccccc2Cl)[C@H]1c1ccc(CO)cc1 is greater than or equal to 0.1
Result: f

Request: # check: composite z-score of CN(C)CCCCCCNC(=O)[C@@H]1C[C@@H]2C(=O)N3CCC[C@H]3C(=O)N2[C@@H]1c1cccc(OCCO)c1 is greater than or equal to 0.1
Result: t

Request: # check: composite z-score of O=C1N(CCS(=O)(=O)c2ccccc2)c2ccccc2[C@H]2OC(c3ccc(OCCCO)cc3)=N[C@@]12Cc1ccccc1 is greater than or equal to 0.1
Result: t

Request: # check: composite z-score of COC(=O)C1=CC(CCCO)=CC(c2ccc(CN3CCCC3)cc2)N(Cc2cccc(OC(F)(F)F)c2)C=C1C(=O)OC (stereo not given) is greater than or equal to 0.1
Result: t

Request: # check: composite z-score of COc1ccccc1CN1C(=O)c2ccccc2[C@](Cc2ccccc2I)(C(=O)O)[C@@H]1c1ccc(CO)cc1 is greater than or equal to 0.1
Result: f

Request: # check: composite z-score of CCCCN1CC=CC23O[C@@H]4/C=C\CCC(C)OC(=O)C4[C@H]2C(=O)N(CCCO)[C@@H]3C1=O (stereo not given in full) is greater than or equal to 0.1
Result: f

Request: # check: composite z-score of C=CCN1Cc2ccccc2[C@@H]2OC(c3ccc(OCCCO)cc3)=N[C@]2(CC=C)C1=O is greater than or equal to 0.1
Result: t

Request: # check: composite z-score of C=C[C@@H](OC)[C@H](OC(=O)Nc1ccc(OC)cc1)c1ccc(O)c(F)c1 is greater than or equal to 0.1
Result: f

Request: # check: composite z-score of COC(=O)[C@@H]1N=C(c2ccc(OCCCO)cc2)O[C@@H]1c1ccccc1 is greater than or equal to 0.1
Result: f

This collection of values is drawn from PubChem BioAssay.
